test system: Cerebral cortex; experiment: Inhibition of GABA uptake in rat cerebral cortex; assay type: functional, tissue-based
readout-type: IC50

Q: Endpoint output: IC50 of O=C(O)C1Cc2[nH]cnc2CN1 (stereo unspecified) . Value?
Result: 270 µM

* * *

tested on: MDA-MB-231; assay: Cytotoxicity against human MDA-MB-231 cells; type: functional, cell-based
readout-type: IC50

- molecule: "Nc1nccc2c1ncn2[C@@H]1O[C@H](CO)[C@@H](O)[C@H]1O"
  IC50: "< 100 nM"
- molecule: "Nc1ncnc2c1ncn2[C@@H]1C=C(CO)[C@@H](O)[C@H]1O"
  IC50: "< 25000 nM"

Now for another entry.
Q: Any idea what IC50 was measured for Nc1nccc2c1ncn2C1C=C(CO)C(O)C1O (stereo not drawn) ?
Result: < 250 nM

// provenance: ChEMBL document CHEMBL3612061
